system under test: human ETB receptor (Homo sapiens)
Construct: expressed in transfected cells; host or cells: COS7 cells, membrane preparation
Sequence (P24530 27-442): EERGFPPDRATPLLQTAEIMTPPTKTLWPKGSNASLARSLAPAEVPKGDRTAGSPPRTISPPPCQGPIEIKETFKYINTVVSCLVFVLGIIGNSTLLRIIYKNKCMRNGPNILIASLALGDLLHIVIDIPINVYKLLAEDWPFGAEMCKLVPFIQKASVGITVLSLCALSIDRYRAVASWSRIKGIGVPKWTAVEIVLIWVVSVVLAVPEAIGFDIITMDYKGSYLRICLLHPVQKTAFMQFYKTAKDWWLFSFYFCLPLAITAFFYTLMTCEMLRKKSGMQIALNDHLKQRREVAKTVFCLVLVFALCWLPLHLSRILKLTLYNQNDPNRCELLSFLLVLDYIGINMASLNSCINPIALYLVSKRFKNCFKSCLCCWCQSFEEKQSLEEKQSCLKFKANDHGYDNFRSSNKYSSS
assay protocol: Binding Test #2: inhibition of 125I-endothelin-1 binding to ETB receptors (transfected COS7 cell membranes)
settings: incubation at 4° C.; results generally from 1, 2, or 3 experiments; read-out: ETB (μM) IC50
From the text: Compounds that are potential endothelin antagonists are identified by testing their ability to compete with ^125I-labeled ET-1 for binding to human ETA receptors or ETB receptors present on isolated cell membranes. The effectiveness of the test compound as an antagonist or agonist of the biological tissue response of endothelin can also be assessed by measuring the effect on endothelin induced contraction of isolated rat thoracic aortic rings. […]

[
  {
    "compound smiles": "Cc1noc(NP(=O)(c2ccccc2)c2ccccc2)c1C",
    "unit text": "µM",
    "measurement qualifier": ">",
    "IC50": 100
  },
  {
    "compound smiles": "Cc1noc(NP(=O)(c2ccccc2)c2ccccc2)c1Br",
    "unit text": "µM",
    "measurement qualifier": "=",
    "IC50": 85
  }
]

* * *

system under test: human ETB receptor (Homo sapiens)
Construct: expressed in transfected cells; host or cells: COS7 cells, membrane preparation
assay protocol: Binding Test #2: inhibition of 125I-endothelin-1 binding to ETB receptors (transfected COS7 cell membranes)
pIC50: −log10 of the molar value.
Reported pIC50 values for a set of compounds
parameter measured: pIC50

[
  {
    "compound smiles": "Cc1noc(NP(=O)(Oc2ccccc2)Oc2ccccc2)c1Br",
    "reported": 4.11
  },
  {
    "compound smiles": "Cc1noc(NP(=O)(Oc2ccccc2)Oc2ccccc2)c1C",
    "reported": "< 4.00"
  },
  {
    "compound smiles": "CCOP(=O)(Nc1onc(C)c1Br)OCC",
    "reported": "< 4.00"
  }
]

* * *

system under test: human ETA receptors (Homo sapiens, UniProt P25101)
Construct: endogenous in cells; host or cells: TE 671 cells (ATCC HTB 139), membrane preparation
Sequence (P25101 21-427): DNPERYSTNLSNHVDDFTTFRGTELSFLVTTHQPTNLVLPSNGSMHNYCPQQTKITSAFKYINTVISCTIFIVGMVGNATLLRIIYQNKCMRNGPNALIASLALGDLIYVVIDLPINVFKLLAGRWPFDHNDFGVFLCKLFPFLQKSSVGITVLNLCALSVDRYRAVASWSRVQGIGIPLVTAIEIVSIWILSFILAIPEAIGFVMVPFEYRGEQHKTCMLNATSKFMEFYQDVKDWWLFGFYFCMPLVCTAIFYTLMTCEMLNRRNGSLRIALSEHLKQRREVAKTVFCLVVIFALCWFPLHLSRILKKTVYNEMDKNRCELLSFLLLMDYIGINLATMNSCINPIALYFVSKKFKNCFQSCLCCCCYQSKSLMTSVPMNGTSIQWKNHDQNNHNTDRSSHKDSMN
assay protocol: Binding Test #1: inhibition of 125I-endothelin-1 binding to ETA receptors (TE 671 cell membranes)
parameter measured: IC50

[
  {
    "compound smiles": "Cc1noc(NP(=O)(Oc2ccccc2)Oc2ccccc2)c1Br",
    "parameter measured": "IC50",
    "reported": "580 nM"
  },
  {
    "compound smiles": "Cc1noc(NP(=O)(Oc2ccccc2)Oc2ccccc2)c1C",
    "parameter measured": "IC50",
    "reported": "2500 nM"
  },
  {
    "compound smiles": "CCOP(=O)(Nc1onc(C)c1Br)OCC",
    "parameter measured": "IC50",
    "reported": "20000 nM"
  }
]
